# SUBJECT_OF_TEST: full-length VAR2CSA recombinant protein (3D7-DBL1X-6ε) (Plasmodium falciparum 3D7, UniProt Q8I639, strain)
# ASSAY_EXPLANATION: SPR
MEASURED_METRIC: Kd (µM)
Entry rule: numbers only, all in µM.

Consider the reported Kd for these binders:
{"columns": ["BINDER", "RESULT_VALUE"],
 "data": [
  ["VHH864 (VHH) VHH: QVQLQESGGGLVQTGGSLRLSCAASGRTFMDYVMGWFRQAPGKEREFVASISWTDSTRYTDSVKGRFTASRDDAKATVYLQMNNLQFEDTAVYYCARGAGRGHSVSAGDYVYWGQGTQVTVSS", 0.018],
  ["VHH891 (VHH) VHH: QVQLQESGGGLVQTGDSLRLSCAASGRTFSSYAMGWFRQAPGKEREFVAAITWGDGSADYADSVKGRFTISRDNAENTVYLQMNSLKPEDTAVYYCAAETVGAPIYTLGYSEAYDYWGQGTQVTVSS", 0.7],
  ["VHH861 (VHH) VHH: QVQLQESGGGLVQAGGSLRLSCAFSGSIFKMGWYRQAPGKERELVATITHIGVTDYAEFVKGRFTISRDNAKNTVYLLMNSLKPEDTAVYYCNVASRWPDYWGQGTQVTVSS", 0.035]
]}

Attention now turns to another entry.
Form: binder = VHH884 (VHH) VHH: QVQLQESGGGLVQAGGSLRLSCAASGRTFSNYAMGWFRQAPGKEREFVAAISWNGGSTYYADSAKGRFTISRDNAENTVYLQMNSLKPEDTAVYRCAANDLMVPELLMPRVETYDYWGQGTQVTVSS ; Kd = 0.4
